# maps each entry to its viability, T/C
# Tested on: 292921-168-R-J2-PDC KRAS tumor spheroid viability;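 further: drug exposure lasted seven days after spheroids formed for three days; percent of DMSO vehicle control viability which is 100%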
# Measurement Notes: Anticancer human tumor 292921-168-R-J2-PDC patient-derived pancreatic carcinoma cell line growth inhibition [KRAS2]
# Recorded Conditions: second compound 0.1 µM; first compound 10 µM; hits give low values; spheroids with HUVEC and MSC
Record the value in %, omitting the unit from your answer.

# input Would you kindly share the measured viability, T/C for O=C(c1cc(Cc2n[nH]c(=O)c3ccccc23)ccc1F)N1CCN(C(=O)C2CC2)CC1 + CNCc1ccccc1-c1csc(C(C)Nc2nc(C)nc3cc(OC)c(OC)cc23)c1 ?
# output 41.6

# input Now try COc1cc(Nc2ncc3c(n2)-c2ccc(Cl)cc2C(c2c(F)cccc2OC)=NC3)ccc1C(=O)O + CNCc1ccccc1-c1csc(C(C)Nc2nc(C)nc3cc(OC)c(OC)cc23)c1 .
# output 16.5
